Form field: IC50 (one value per entry).
# tested.target: Proto-oncogene tyrosine-protein kinase receptor Ret (Homo sapiens, UniProt P07949)
# Sequence (P07949 whole entry): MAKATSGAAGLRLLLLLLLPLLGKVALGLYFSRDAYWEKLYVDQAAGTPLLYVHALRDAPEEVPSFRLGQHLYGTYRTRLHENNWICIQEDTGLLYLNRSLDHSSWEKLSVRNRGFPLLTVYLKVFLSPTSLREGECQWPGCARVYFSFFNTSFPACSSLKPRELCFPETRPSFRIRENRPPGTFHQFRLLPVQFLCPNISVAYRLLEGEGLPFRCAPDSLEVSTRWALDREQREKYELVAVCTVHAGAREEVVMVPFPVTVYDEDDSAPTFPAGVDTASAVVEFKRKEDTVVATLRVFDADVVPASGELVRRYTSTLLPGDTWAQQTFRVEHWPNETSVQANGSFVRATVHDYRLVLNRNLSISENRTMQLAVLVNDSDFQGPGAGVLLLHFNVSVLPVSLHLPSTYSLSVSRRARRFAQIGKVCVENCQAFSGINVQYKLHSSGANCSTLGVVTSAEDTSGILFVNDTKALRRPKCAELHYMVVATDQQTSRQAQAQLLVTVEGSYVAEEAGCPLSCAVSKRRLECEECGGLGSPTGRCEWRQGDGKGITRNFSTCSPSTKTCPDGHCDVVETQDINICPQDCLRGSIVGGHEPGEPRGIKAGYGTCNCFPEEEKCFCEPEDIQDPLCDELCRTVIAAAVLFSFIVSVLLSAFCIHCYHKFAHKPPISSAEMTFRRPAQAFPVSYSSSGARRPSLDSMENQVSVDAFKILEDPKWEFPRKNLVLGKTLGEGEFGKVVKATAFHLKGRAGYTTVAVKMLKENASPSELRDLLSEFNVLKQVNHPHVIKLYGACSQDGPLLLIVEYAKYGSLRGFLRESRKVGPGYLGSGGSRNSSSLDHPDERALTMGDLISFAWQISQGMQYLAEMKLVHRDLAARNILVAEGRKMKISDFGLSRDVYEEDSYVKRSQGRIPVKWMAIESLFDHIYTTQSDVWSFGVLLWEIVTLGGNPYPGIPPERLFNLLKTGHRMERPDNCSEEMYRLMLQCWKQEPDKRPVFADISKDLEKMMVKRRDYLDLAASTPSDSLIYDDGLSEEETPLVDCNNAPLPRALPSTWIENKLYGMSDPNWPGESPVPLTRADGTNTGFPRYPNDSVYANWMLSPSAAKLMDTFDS
Dear colleague, please return just the value in nM, with no unit written.

molecule	IC50 / nM
CNc1ncc2c(-c3ccc(N4CCNCC4)nc3)nn(CC3OCCO3)c2n1	160
Nc1nc(Nc2ccc3c(c2)CC[C@@H](N2CCCC2)CC3)nn1-c1cc2c(nn1)-c1ccccc1CCC2 [BEMCENTINIB]	3
CNc1ncc2c(-c3ccc(N4CCN(C)CC4)nc3)nn(CC3CCCC3)c2n1	60

# input With Proto-oncogene tyrosine-protein kinase receptor Ret (Homo sapiens, UniProt P07949) as the test system, provide measured IC50 for this molecule: "CNc1ncc2c(-c3ccc(N4CCNCC4)nc3)nn(Cc3cn(-c4ccsc4C(=O)OC)nn3)c2n1"
# output 430

# input Give IC50; test system Proto-oncogene tyrosine-protein kinase receptor Ret (Homo sapiens, UniProt P07949); molecule "CNc1ncc2c(-c3ccc(N4CCNCC4)nc3)nn(CC3CCCC3)c2n1"
# output 50

# input With Proto-oncogene tyrosine-protein kinase receptor Ret (Homo sapiens, UniProt P07949) as the test system, provide measured IC50 for this molecule: "CNc1ncc2c(-c3ccc(N4CCN(C(=O)C(C)(C)C)CC4)nc3)nn(Cc3cn(Cc4ccccc4)nn3)c2n1"
# output 4000

* * *

# tested.target: UniProt P00533
# Sequence (P00533 whole entry): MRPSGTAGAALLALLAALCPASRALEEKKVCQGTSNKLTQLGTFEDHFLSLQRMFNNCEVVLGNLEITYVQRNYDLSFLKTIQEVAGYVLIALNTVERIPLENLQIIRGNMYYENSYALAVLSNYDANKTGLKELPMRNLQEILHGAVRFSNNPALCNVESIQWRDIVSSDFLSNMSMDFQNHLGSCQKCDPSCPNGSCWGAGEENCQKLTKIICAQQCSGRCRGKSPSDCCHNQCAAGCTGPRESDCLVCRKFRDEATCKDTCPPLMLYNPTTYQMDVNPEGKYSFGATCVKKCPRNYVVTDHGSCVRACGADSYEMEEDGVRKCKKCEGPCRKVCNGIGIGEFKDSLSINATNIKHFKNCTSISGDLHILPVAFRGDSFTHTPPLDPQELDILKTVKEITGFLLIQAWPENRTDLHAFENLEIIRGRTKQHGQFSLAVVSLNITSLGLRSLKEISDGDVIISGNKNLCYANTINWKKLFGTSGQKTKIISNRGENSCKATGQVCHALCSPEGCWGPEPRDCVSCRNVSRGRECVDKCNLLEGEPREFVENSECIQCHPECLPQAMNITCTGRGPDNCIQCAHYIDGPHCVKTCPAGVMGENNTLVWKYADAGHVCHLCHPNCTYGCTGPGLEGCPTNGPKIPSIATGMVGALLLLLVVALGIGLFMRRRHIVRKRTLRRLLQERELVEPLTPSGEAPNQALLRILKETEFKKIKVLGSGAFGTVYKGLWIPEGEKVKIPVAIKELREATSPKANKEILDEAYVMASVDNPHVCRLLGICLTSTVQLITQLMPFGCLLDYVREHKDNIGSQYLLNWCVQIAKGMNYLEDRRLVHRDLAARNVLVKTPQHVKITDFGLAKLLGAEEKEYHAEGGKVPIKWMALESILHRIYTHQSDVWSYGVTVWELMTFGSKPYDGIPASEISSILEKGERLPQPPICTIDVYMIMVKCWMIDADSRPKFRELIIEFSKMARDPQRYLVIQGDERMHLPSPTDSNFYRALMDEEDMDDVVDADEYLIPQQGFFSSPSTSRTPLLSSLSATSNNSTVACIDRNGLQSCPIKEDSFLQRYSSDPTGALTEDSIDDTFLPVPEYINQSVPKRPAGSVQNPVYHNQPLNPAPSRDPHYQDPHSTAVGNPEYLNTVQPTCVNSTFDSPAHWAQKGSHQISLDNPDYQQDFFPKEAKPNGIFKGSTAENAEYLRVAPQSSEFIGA
property: pIC50
Would you please state pIC50, meaning minus log10 of the concentration in mol/L, as a bare number?

# input Report measured pIC50; entry is "Nc1nc(Nc2ccc3c(c2)CC[C@@H](N2CCCC2)CC3)nn1-c1cc2c(nn1)-c1ccccc1CCC2"
# output 5.41

* * *

Notes on pIC50 obtained with Hepatocyte growth factor receptor (Homo sapiens).
Sequence (P08581 whole entry): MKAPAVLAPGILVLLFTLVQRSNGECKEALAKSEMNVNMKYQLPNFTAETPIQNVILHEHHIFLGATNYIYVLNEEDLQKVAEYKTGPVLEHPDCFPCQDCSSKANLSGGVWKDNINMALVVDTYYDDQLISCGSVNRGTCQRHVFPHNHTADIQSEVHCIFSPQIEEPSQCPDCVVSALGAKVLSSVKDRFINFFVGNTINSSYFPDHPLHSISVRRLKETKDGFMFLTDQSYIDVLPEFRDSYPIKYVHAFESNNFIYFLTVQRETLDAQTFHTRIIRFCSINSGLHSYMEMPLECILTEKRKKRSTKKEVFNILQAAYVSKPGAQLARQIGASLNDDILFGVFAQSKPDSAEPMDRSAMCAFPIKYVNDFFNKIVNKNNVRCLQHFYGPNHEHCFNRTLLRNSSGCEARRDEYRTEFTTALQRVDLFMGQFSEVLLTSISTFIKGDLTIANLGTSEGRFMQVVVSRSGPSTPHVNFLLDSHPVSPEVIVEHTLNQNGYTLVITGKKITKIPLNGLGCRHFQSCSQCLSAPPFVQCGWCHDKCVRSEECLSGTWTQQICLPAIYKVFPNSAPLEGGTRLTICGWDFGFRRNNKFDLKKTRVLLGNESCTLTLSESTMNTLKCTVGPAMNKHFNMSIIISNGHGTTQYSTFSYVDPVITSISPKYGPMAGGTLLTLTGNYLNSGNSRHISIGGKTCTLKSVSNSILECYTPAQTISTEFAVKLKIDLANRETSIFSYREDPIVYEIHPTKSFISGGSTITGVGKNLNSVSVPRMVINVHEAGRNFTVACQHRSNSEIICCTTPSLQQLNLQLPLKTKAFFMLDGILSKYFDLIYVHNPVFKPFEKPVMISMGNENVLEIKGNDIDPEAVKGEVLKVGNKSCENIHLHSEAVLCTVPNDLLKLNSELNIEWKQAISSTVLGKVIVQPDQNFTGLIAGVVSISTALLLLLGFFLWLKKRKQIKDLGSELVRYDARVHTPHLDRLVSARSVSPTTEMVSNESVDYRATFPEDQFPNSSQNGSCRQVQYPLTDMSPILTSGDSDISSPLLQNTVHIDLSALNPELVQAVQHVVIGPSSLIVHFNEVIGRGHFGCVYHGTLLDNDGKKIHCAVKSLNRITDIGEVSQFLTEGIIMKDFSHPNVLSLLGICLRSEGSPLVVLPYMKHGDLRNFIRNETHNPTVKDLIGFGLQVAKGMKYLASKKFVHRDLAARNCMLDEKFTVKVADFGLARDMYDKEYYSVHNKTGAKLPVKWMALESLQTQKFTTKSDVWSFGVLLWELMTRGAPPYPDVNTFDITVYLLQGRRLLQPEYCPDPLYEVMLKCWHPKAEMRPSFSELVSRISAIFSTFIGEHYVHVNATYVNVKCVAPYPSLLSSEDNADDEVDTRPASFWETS
Would you please state pIC50, meaning minus log10 of the concentration in mol/L, as a bare number?

compound	tested.target	pIC50
CNc1ncc2c(-c3ccc(N4CCN(C)CC4)nc3)nn(CC3CCCC3)c2n1	Hepatocyte growth factor receptor (Homo sapiens)	5.46

# input Give the observed pIC50 of Nc1nc(Nc2ccc3c(c2)CC[C@@H](N2CCCC2)CC3)nn1-c1cc2c(nn1)-c1ccccc1CCC2 [BEMCENTINIB] for Hepatocyte growth factor receptor (Homo sapiens).
# output 5.47

* * *

# tested.target: Tyrosine-protein kinase receptor TYRO3 (Homo sapiens, UniProt Q06418)
# Sequence (Q06418 whole entry): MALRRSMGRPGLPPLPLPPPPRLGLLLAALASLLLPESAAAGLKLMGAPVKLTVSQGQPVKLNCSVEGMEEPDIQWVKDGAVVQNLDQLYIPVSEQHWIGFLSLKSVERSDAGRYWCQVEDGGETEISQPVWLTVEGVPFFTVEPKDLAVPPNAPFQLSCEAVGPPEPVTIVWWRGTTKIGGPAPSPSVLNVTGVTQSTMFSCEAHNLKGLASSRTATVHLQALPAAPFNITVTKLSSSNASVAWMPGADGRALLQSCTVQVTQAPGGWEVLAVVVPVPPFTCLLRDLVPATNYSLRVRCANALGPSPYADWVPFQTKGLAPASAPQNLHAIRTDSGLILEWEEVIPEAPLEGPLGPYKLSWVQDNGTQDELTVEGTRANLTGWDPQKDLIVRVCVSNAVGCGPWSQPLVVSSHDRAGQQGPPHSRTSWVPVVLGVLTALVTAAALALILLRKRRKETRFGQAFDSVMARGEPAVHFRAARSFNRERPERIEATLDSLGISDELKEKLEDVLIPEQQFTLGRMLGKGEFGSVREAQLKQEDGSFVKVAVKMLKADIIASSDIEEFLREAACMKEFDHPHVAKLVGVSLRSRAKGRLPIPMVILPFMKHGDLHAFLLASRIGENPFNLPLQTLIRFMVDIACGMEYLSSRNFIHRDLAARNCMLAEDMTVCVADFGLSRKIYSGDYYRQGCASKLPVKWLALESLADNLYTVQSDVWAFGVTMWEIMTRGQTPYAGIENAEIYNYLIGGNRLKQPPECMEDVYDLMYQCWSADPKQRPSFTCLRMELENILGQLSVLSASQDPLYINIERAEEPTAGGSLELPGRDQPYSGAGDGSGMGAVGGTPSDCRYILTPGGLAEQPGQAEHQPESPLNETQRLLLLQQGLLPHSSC
IC50 values by entry

smiles.representation	property	value
CNc1ncc2c(-c3ccc(N4CCN(C(=O)C(C)(C)C)CC4)nc3)nn(CC3CCCC3)c2n1	IC50	> 10 µM
CCN1CCN(c2ccc(-c3nn(CC4CCCC4)c4nc(NC)ncc34)cn2)CC1	IC50	> 10 µM
CCN1CCN(c2ccc(-c3nn(Cc4cn(Cc5ccccc5)nn4)c4nc(NC)ncc34)cn2)CC1	IC50	1.9 µM
CNc1ncc2c(-c3ccc(N4CCNCC4)nc3)nn(Cc3cn(Cc4ccccc4)nn3)c2n1	IC50	> 10 µM
CNc1ncc2c(-c3ccc(N4CCNCC4)nc3)nn(CC3CCCC3)c2n1	IC50	> 10 µM

# next compound below
# input Give a short answer stating reported IC50 for "Nc1nc(Nc2ccc3c(c2)CC[C@@H](N2CCCC2)CC3)nn1-c1cc2c(nn1)-c1ccccc1CCC2" .
# output 0.017 µM
